Consider the following IC50 values measured on UniProt P04406.
Sequence (P04406 whole entry): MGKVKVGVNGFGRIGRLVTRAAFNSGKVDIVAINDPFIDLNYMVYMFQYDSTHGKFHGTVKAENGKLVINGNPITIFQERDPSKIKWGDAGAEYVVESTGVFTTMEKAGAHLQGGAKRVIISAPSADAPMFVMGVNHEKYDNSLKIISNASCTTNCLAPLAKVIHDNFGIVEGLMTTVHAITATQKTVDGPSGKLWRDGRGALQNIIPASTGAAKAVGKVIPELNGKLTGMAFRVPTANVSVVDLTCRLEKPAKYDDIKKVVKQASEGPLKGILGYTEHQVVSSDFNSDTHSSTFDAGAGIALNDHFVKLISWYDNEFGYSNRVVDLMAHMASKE

Example compounds with recorded IC50:
{"compound": "COc1cccc(N2CCN(C3=C(Cl)C(=O)N(c4cccc(C(F)(F)F)c4)C3=O)CC2)c1", "measured.on": "UniProt P04406", "IC50": "> 50 µM (inconclusive)"}
{"compound": "Cc1cccc(N2C(=O)C(Cl)=C(N3CCN(C/C=C/c4ccccc4)CC3)C2=O)c1", "measured.on": "UniProt P04406", "IC50": "> 50 µM (inconclusive)"}
{"compound": "Cc1ccc(Cl)c(N2C(=O)C(Cl)=C(N3CCN(C)CC3)C2=O)c1Cl", "measured.on": "UniProt P04406", "IC50": "> 100 µM (not active)"}

Field: next compound
Ask: Entry under review: O=C1C2CC=CCC2C(=O)N1c1nnc(Cc2ccccc2)[nH]1 (centres undefined) . Reported IC50?
Result: > 100 µM (not active)

The reported numbers originate from ChEMBL document CHEMBL1201862.
